System: 966289-007-R4-J1-PDC complex spheroid viability;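 note: spheroids exposed to agents for one week before readout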
assay text: Anticancer human tumor 966289-007-R4-J1-PDC patient-derived pancreatic adenocarcinoma cell line growth inhibition [RAS]
test context: curve of first compound; second compound 0.3 µM
metric: IC50 (nM)
State the answer as a number, implicitly in nM.

In the examples that follow, each entry is paired with its recorded IC50.
[[record]]
molecule = "CCC(CC)c1cc(NC2CCC(N)C2)n2nccc2n1 (stereo not drawn) + CCn1c(-c2cccnc2C(C)OC)c2c3cc(ccc31)N1CCOC(CC(NC(=O)C(C(C)C)N(C)C(=O)C3(F)CCN(C(=O)C#CC(C)(C)N(C)C)CC3)C(=O)N3CCCC(N3)C(=O)OCC(C)(C)C2)C1"
recorded_value = 595

[[record]]
molecule = "Nc1ccn(C2OC(CO)C(O)C2(F)F)c(=O)n1 (stereo not drawn) + CCn1c(-c2cc(N3CCN(C)CC3)cnc2C(C)OC)c2c3cc(ccc31)-c1csc(n1)CC(NC(=O)C1CC1C)C(=O)N1CCCC(N1)C(=O)OCC(C)(C)C2"
recorded_value = 12.5

[[record]]
molecule = "CC(C)n1nc(-c2ccc3oc(N)nc3c2)c2c(N)ncnc21 + CCn1c(-c2cc(N3CCN(C)CC3)cnc2C(C)OC)c2c3cc(ccc31)-c1csc(n1)CC(NC(=O)C1CC1C)C(=O)N1CCCC(N1)C(=O)OCC(C)(C)C2"
recorded_value = 25.4


Challenge: Given CC1(O)CCCC1n1c(=O)c(C(F)F)cc2cnc(NC3CCN(S(C)(=O)=O)CC3)nc21 (stereo not drawn) + CCn1c(-c2cc(N3CCN(C)CC3)cnc2C(C)OC)c2c3cc(ccc31)-c1csc(n1)CC(NC(=O)C1CC1C)C(=O)N1CCCC(N1)C(=O)OCC(C)(C)C2 , respond with its IC50.
Response given: 139
